Source: patent US20200239573A1

- system name: T1, human PD-1 expressed on cells (CHO human PD-1 cells) (human, UniProt Q15116 21-288)
- T1 construct: also called CHO TREX human PD-1 cell line; CHO PD-1
- T1 sequence (Q15116 21-288): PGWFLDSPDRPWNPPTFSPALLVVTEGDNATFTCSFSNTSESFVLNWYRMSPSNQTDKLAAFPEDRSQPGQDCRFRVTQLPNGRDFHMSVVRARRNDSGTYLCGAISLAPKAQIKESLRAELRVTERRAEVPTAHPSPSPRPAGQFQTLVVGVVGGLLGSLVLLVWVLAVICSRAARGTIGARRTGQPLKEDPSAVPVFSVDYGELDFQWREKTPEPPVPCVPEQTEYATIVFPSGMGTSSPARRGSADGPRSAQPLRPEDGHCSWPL
- measurement protocol: FMAT inhibition; 100 pM PD-L1-Fc on CHO human PD-1 cells
quantity name: IC50 (nM)

Below: 5 binders and their reported IC50.
Humabody® 1.98 (VHH, human VH single domain antibody) VHH: EVQLVESGGGLVKPGGSLRLSCAASGFTFSDKSMTWMRQAPGKGLEWVSYISSGGGVKFYADSVKGRFTISRDNAKNSLYLQMNSLRAEDTAVYYCAREAPLRLGESPHDAFDISGQGTMVTVSS
2.08
Humabody® 1.63 (VHH, human VH single domain antibody) VHH: EVQLVESGGGLVKPGGSLRLSCAASGFTFSDSSMTWMRQAPGKGLEWVSYISSGGGVKFYTDSVKGRFTISRDNAKNSLYLQMNSLRADDTAVYYCAREAPLRLGESPHDAFDISGQGTMVTVSS
4.5
Humabody® 1.64 (VHH, human VH single domain antibody) VHH: EVQLVESGGGLVKPGGSLRLSCAASGFTFSDSSMTWMRQAPGKGLEWVSYISSGGGVKFYADSVKGRFTISRDNAKNSLYLQMNSLRADDTAVYYCAREAPLRLGESPHDAFDISGQGTMVTVSS
5.8
Humabody® 1.100 (VHH, human VH single domain antibody) VHH: EVQLVESGGGLVKPGGSLRLSCAASGFTFSDLSMTWMRQAPGKGLEWVSYISSGGGVKFYADSVKGRFTISRDNAKNSLYLQMNSLRAEDTAVYYCAREAPLRLGESPHDAFDISGQGTMVTVSS
2.61
Humabody® 1.92 (VHH, human VH single domain antibody) VHH: EVQLVESGGGLVKPGGSLRLSCAASGFTFSDESMTWMRQAPGKGLEWVSYISSGGGVKFYADSVKGRFTISRDNAKNSLYLQMNSLRAEDTAVYYCAREAPLRLGESPHDAFDISGQGTMVTVSS
2.8

1: Humabody® 1.95 (VHH, human VH single domain antibody) VHH: EVQLVESGGGLVKPGGSLRLSCAASGFTFSDGSMTWMRQAPGKGLEWVSYISSGGGVKFYADSVKGRFTISRDNAKNSLYLQMNSLRAEDTAVYYCAREAPLRLGESPHDAFDISGQGTMVTVSS
2: Humabody® 1.65 (VHH, human VH single domain antibody) VHH: QVQLVESGGGLVKPGGSLRLSCAASGFTFSDSSMTWMRQAPGKGLEWVSYISSGGGVKFYADSVKGRFTISRDNAKNSLYLQMNSLRADDTAVYYCAREAPLRLGESPHDAFDISGQGTMVTVSS
3: Humabody® 1.99 (VHH, human VH single domain antibody) VHH: EVQLVESGGGLVKPGGSLRLSCAASGFTFSDRSMTWMRQAPGKGLEWVSYISSGGGVKFYADSVKGRFTISRDNAKNSLYLQMNSLRAEDTAVYYCAREAPLRLGESPHDAFDISGQGTMVTVSS
Ask | Parameters: sort_field (IC50), sort_dir (desc). List labels; respect the requested ordering.
Reply | 2, 1, 3
(2: 5.8 nM, 1: 3.59 nM, 3: 1.86 nM)
